measurement-target: T1, MpAgo WT (Marinitoga piezophila, UniProt H2J4R4 1-639)
T1 sequence: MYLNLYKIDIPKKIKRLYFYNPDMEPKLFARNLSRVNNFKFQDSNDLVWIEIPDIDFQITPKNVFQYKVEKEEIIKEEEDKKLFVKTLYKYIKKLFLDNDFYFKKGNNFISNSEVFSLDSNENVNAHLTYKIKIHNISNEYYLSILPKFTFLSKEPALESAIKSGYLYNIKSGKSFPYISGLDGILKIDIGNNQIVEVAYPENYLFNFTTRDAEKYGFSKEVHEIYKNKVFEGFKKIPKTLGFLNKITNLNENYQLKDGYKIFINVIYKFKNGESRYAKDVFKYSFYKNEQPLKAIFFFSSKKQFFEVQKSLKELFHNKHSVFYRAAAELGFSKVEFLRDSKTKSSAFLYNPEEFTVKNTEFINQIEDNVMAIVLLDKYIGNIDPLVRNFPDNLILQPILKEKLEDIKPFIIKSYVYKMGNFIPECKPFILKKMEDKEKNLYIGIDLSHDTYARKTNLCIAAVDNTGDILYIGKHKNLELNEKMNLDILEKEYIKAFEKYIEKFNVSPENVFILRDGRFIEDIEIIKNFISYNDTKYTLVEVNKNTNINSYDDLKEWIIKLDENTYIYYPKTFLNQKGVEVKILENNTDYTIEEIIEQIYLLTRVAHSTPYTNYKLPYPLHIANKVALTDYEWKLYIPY
assay-comment: filter binding
assay-metric: Kd (nM)

INSERT INTO assay_data (binder, reading) VALUES
  ('GAUACAACCUACUACCUCAUU (ssRNA, 5''-OH) [gRNA 5''-rG]', 52);
